target: HLA-A*02:01 (Homo sapiens, UniProt P04439, D140Y/D185E/D98H/E176V/E277Q/G131W/G231S/I119V/I121R/I166T/I218V/L300P/L318F/N151K/N90K/P208A/P217A/Q86G/Q94H/R138H/R169H/T345S); assay: MHC binding assay (UV-ligand exchange, beta2m ELISA, peptide exchange yield); details: MHC class I binding score; binding to HLA-A*02:01 ranged by peptide exchange yield (UV-ligand exchange, β2m ELISA)
value.type: Peptide exchange

Take a look at these entries with their results.
>>> print(df.to_string())
                                  substance        observed_value
0  86 (KVFPGKISV; listed as Homo sapiens) [compound 86]      ″++″ (≥20% = ++)
1  94 (KSMDIVLTV; listed as Homo sapiens) [compound 94]     ″+++″ (≥50 = +++)
2  149 (YQFDKVGILTL; listed as Homo sapiens) [compound 149]     ″+++″ (≥50 = +++)
3  93 (SLQELRLLL; listed as Homo sapiens) [compound 93]  ″++++″ (≥75% = ++++)
4  77 (SLLKRDFGA; listed as Homo sapiens) [compound 77]      ″++″ (≥20% = ++)
5  78 (ALDPELLLL; listed as Homo sapiens) [compound 78]      ″++″ (≥20% = ++)
6  44 (SLESKLTSV; listed as Homo sapiens) [compound 44]     ″+++″ (≥50 = +++)
7  152 (KLLAVIHEL; listed as Homo sapiens) [compound 152]      ″++″ (≥20% = ++)

Now for a further substance.
So what's the measured Peptide exchange for this one? 174 (ILLDDNMQIRL; listed as Homo sapiens) [compound 174]
″++++″ (≥75% = ++++)
